# subject_of_test: SARS-CoV-2 3CL protease (Severe acute respiratory syndrome coronavirus 2, UniProt P0DTD1)
# Type: biochemical
# Design: unit not given here
# measurement_parameters: Conc 200 µM
Reported Avg by item:
result_type: Avg

1) O=C(NCC(CO)c1ccccc1)c1cccnc1S (centres unmarked) [Z1346056045] = 87.7
2) CC(C)OC1CCC(NC(=O)c2cccnc2S)CC1 (centres unmarked) [Z1500153099] = 103
3) CCC(=O)N1CCC(NC(=O)c2cccnc2S)C1 (centres unmarked) [Z1429050837] = 100.5
4) CCNC(=O)N1CCC(NC(=O)c2cccnc2S)C1 (centres unmarked) [Z1421663935] = 100
5) O=C(NCCC(O)c1ccccc1)c1cccnc1S (centres unmarked) [Z1275438373] = 95.1
6) O=C(NCc1ncccc1F)c1cccnc1S [Z1499268500] = 94.2
7) O=C(CCl)NC(=O)OCc1ccccc1 [Z108566700] = 108.1
8) COC(C)(C)CNC(=O)c1cccnc1S [Z1274680193] = 60.9
9) CC(C)Cc1ncc(CNC(=O)c2cccnc2S)s1 [Z1494348106] = 93.1
10) O=C(NCC1CCCCC1O)c1cccnc1S (centres unmarked) [Z1252265470] = 99.1
11) O=C(NCC1(O)CCc2ccccc21)c1cccnc1S (centres unmarked) [Z1501256406] = 65.5
12) Cc1nc(CCNC(=O)c2cccnc2S)sc1C [Z1432661577] = 108.4
13) COC1(CNC(=O)c2cccnc2S)CCOCC1 [Z1483040147] = 90.2
14) Cc1cc(C(=O)CCl)c(C)n1-c1ccccn1 [Z126674012] = 99.9
15) Cn1cc(CNC(=O)c2cccnc2S)c(C(F)(F)F)n1 [Z1488388701] = 105
16) O=C(NCc1ccc(F)c(CO)c1)c1cccnc1S [Z1501229042] = 89.2
17) NC(=O)CCc1ccc(C(=O)CCl)cc1 [Z1203664423] = 103.3
